Experimental System: T1, RSV postfusion F (postF), subtype A (respiratory syncytial virus subtype A, UniProt P03420 26-513)
T1 construct: also called Postfusion subtype A; F deltaFP
Procedure Details: BLI, IgG
pKd overview
Just the number, please; pKd means minus log10 of the concentration in mol/L.

See these solved cases before continuing.
- Binder: "ADI-14354 (antibody, V domains shown, full-length IgG; also called Ab 22) VH: QVQLVQSGAEVKKPGSSAKVSCKASGGTFSSYTISWVRQAPGQGLEWMGRIIPFLGIANYAQKFQGRVTFTADKSTSTVYMDLSRLRSEDTALYYCAREPMYYGGDSYAFDVWGQGTTVTVSS VL: QSVLTQPASMSGSPGHSITISCTGTSSDVGAYNYVSWYQQHPGKAPKLMIYDVSNRPSGVSSRFSGSKSGNTASLTISGLQPEDEADYYCSSFTTSSTRVFGTGTKLTVL"
  Readout: "pKd"
  Observed Measurement: 8.98
- Binder: "ADI-25547 (antibody, V domains shown, full-length IgG) VH: EVQLLESGGGLIQPGGSLRLSCAASGFTVSSNYMSWVRQAPGKGLEWVSVIYSGGSTYYADSVKGRFTISRDNSKNTLYLQMNSLRAEDTAVYYCARGGIADAFDIWGQGTMVTVSS VL: ETTLTQSPSSVSASVGDRVTITCRASQGISSWLAWYQQKPGKAPKLLIYAASSLQSGVPSRFSGSGSGTDFTLTISSLQPEDFATYYCQQANSFPRTFGQGTKLEIK"
  Readout: "pKd"
  Observed Measurement: 7.67
- Binder: "ADI-14343 (antibody, V domains shown, full-length IgG; also called Ab 11) VH: QVQLVQSGAEVKKPGSSVKVSCKASGGTFSSYGVNWVRQAPGQGLEWMGRIIPMFGTSNYAQKFQGRVTITADGSTSTAYMELSSLRSEDTAVYYCARVGSPTTGAIMGVWGQGTTVTVSS VL: DIVLTQTPLSLPVTPGEPASISCRSSQSLLQSNGFNYLDWYLQKPGQSPKLLIYMGSNRASGVPDRFSGSGSGTDFTLIISRVEAEDVGVYYCMQAIESPLTFGGGTKVDIK"
  Readout: "pKd"
  Observed Measurement: 8.53

Now turn to the next binder.
Data request: Reported pKd, binder ADI-22779 (antibody, V domains shown, full-length IgG) VH: QVQLQQWGAGLLKPSETLSLTCAVYGGSFSDYSWTWIRQPPGKGLEWIGEISHTGITNYNPSLKSRVNISVDTSKNQFSLKLSSVTAADTAVYYCARADAYDSSGYYVYYFDYWGQGTLVTVSS VL: DIQVTQSPPSLSASVGDRVTITCRASQTIASYLNWYHQKPGKAPELLIYAASSLQSGVPSRFSGSGSGTAFTLTISSLQPEDFATYYCQQSYSAPPSFGQGTKVEIK : ____
Data returned: 8.21

Value source: patent US20260258115A1
